# PROTOCOL_TEXT: yeast display, Sf9 membrane polyspecificity reagent, FACS + sequencing; frameworks hold sequencing errors
EXPERIMENTAL_READOUT: polyreactivity (PSR sort gate)

1. QVQLVESGGGLVQAGGSLRLSCAASGRIFRYNAMGWYRQAPGKERELVAAITQSGGNTYYADSVKGRFTISRDNAKNTVYLQMNSLKPEDTAVYYCAAATRQFAGQRYGYWGQGTQVTVSS ... high polyreactivity
2. QVQLVVSGGGLVQAGGSLRLSCAASGSIFGENAMGWYRQAPGKERELVAAITWSGASTYYADSVKGRFTISRDNAKNTVFLKMNSLKPEDTAVYYCNDDRFVRFSTFDYWGQGTQVTVSS ... high polyreactivity
